Test: in vitro
Type: cell-based
Conditions: human
assayReadout: CC50 at 5 days

Any idea what CC50 at 5 days was measured for `Cc1c(C)c2c(c3c1CC[n+]1ccc(/C=C/c4ccc(N(C)C)cc4)cc1-3)-c1cc(/C=C/c3ccc(N(C)C)cc3)cc[n+]1CC2` ?
> 50 µM

What about this molecule? `COc1ccc2ccccc2c1/C=C/c1cc[n+]2c(c1)-c1c(c(C)c(C)c3c1-c1cc(/C=C/c4c(OC)ccc5ccccc45)cc[n+]1CC3)CC2`
> 50 µM

What about this molecule? `COc1ccc(/C=C/c2cc[n+]3c(c2)-c2c(c(C)c(C)c4c2-c2cc(/C=C/c5ccc(OC)cc5OC)cc[n+]2CC4)CC3)c(OC)c1`
> 50 µM
